- study.target: feline FcRn complex (FcRn-α subunit and β-microglobulin) (feline)
- assay.comment: SPR (Biacore), FcRn on SA chip, pH 6
parameter: Kd (nM)

>>> reported_value("feline IgG1a mutant ID No. 306: D399M, T403R (antibody, part only; not given: Variable domains, not shown: another chain or arm of the molecule; small tags and cut ends) constant: ASTTAPSVFPLAPSCGTTSGATVALACLVLGYFPEPVTVSWNSGALTSGVHTFPAVLQASGLYSLSSMVTVPSSRWLSDTFTCNVAHPPSNTKVDKTVRKTDHPPGPKPCDCPKCPPPEMLGGPSIFIFPPKPKDTLSISRTPEVTCLVVDLGPDDSDVQITWFVDNTQVYTAKTSPREEQFNSTYRVVSVLPILHQDWLKGKEFKCKVNSKSLPSPIERTISKAKGQPHEPQVYVLPPAQEELSRNKVSVTCLIKSFHPPDIAVEWEITGQPEPENNYRTTPPQLMSDGRYFVYSKLSVDRSHWQRGNTYTCSVSHEALHSHHTQKSLTQSPGK")
12.8
